tested_system: T1, human TNFR2 on the cell membrane (human, UniProt P20333 23-461)
T1 construct: whole, on cells; One molecule for all cell formats; also called TNFR2-CHO cells; CHO-TNFR2
T1 sequence (looked up): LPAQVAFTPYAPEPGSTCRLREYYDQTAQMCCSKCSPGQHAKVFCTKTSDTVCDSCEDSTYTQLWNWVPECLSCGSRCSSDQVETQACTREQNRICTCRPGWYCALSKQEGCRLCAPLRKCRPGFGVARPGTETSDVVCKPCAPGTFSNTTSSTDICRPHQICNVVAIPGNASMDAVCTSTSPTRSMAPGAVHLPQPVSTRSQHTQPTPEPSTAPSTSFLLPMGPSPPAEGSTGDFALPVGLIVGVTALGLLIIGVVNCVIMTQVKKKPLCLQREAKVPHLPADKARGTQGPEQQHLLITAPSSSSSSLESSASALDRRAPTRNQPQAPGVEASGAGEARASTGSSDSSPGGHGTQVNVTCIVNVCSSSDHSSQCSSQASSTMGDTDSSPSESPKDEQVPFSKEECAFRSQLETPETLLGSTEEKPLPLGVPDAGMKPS
test_details: flow cytometry, CHO-TNFR2 cells
test_readout: EC50 (nM)
Kindly provide the numeric value in nM only, without the unit symbol.

Given item human-mouse chimeric TNFR2 monoclonal antibody 12E12-hFc (antibody, V domains shown, Mouse V regions of clone 12E12 with human constant regions; also called human-mouse chimeric 12E12 antibody) VH: EVQLQQSGAELVKPGASVKLSCTVSGFNIKDFYIHWVKQRPEQGLEWIGRVDPEDGNTEYAPNFQDRATMTTDTSSNTAYLQLSSLTSVDTAVYYCSTWDGFSYFDYWGLGTTLTVSS VL: QAVVTQESALTTSPGETVTLTCRSSTGPVTTNNYANWVQEKPDHLFTGLIGGTNDRAPGVPARFSGSLIGDKTALTITGTQTEDEAVYFCALWYRNHWVFGGGTKLTVL , the value recorded as its EC50 is 0.195

Note to self: EC50 recorded for 33C12huVH2 + huVL3(P07303) (antibody, V domains shown, Humanized 33C12) VH: EVQLVESGGGLVKPGGSLRLSCAASGFTFSDYTMSWVRQAPGKGLEWVATISTGGSYTYYPDSVKGRFTISRDNAKNTLYLQMSSLRAEDTAVYYCARDGGYDGDYFDYWGQGTTVTVSS VL: EIVLTQSPATLSLSPGERATLSCRASSSVSSSYLHWYQQKPGQAPRLLIYRTSNLATGIPDRFSGSGSGTDFTLTISRLEPEDFAVYYCQQYSGYPLTFGGGTKLEIK was 1.12
